Exercise: for every item that follows, state its recorded pIC50.
target: RIP2 recombinant protein (Homo sapiens, UniProt O43353); test: radiometric protein kinase assay (33PanQinase Activity Assay), in vitro peptide-based kinase assay; settings: ATP 3.0 μM, RIP2 15.7 nM, substrate RBER-Chktide
Sequence (O43353 whole entry): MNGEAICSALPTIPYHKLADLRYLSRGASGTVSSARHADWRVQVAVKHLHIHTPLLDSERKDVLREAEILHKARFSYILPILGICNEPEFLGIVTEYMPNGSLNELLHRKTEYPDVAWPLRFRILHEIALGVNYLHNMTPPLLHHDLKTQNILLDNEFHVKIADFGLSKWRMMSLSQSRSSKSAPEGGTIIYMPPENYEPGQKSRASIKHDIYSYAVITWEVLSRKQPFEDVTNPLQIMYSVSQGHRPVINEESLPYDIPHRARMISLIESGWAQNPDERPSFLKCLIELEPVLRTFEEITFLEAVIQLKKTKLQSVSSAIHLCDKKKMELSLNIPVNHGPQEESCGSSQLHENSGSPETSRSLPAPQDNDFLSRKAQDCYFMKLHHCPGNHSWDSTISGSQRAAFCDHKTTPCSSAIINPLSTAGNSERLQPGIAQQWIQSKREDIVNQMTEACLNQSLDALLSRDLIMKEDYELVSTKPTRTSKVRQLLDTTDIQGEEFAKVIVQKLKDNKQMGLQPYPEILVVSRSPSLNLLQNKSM
pIC50: −log10 of the molar value.

Incoming: Need pIC50 of CC1(C)CCCC(N2CCNc3ccn4ncc(c4n3)-c3cc(F)cc(c3)OCC2)C1 (stereo not shown) , thanks.
Outgoing: 6.00 to 7.00

Incoming: Also COCCN1CCCNc2ccn3ncc(c3n2)-c2cc(F)cc(c2)OCC1 ?
Outgoing: > 7.00

Incoming: Request: COCCN1CCCOc2cc(F)cc(c2)-c2cnn3ccc(nc23)NCC1
Outgoing: > 7.00

Incoming: Likewise for CC1CNc2ccn3ncc(c3n2)-c2cccc(c2)OCC(=O)N1 (stereo not shown) ?
Outgoing: 6.00 to 7.00

====

biological target: RIP2 recombinant protein (Homo sapiens, UniProt O43353); assay: radiometric protein kinase assay (33PanQinase Activity Assay), in vitro peptide-based kinase assay; conditions: ATP 3.0 μM, RIP2 15.7 nM, substrate RBER-Chktide
Task for the reader: assign each of the following compounds its reported IC50.

Incoming: Query for RIP2 recombinant protein (Homo sapiens, UniProt O43353): what IC50 does the record show for CC1CNCCOc2cccc(c2)-c2cnn3ccc(nc23)N1 (centres unmarked) ?
Outgoing: 0.1 to 1 µM

Incoming: And Fc1cc2cc(c1)-c1cnn3ccc(nc13)NCCN(C1CCOCC1)CCO2 ?
Outgoing: < 0.1 µM

Incoming: Same question for CCC(C)N1CCNc2ccn3ncc(c3n2)-c2cc(F)cc(c2)OCC1 (centres unmarked) please.
Outgoing: < 0.1 µM

Incoming: Another compound to look at: NC(=O)c1cc2cc(c1)-c1cnn3ccc(nc13)NCCN(C1COC1)CCO2
Outgoing: < 0.1 µM

Incoming: Now try CCCCN1CCNc2ccn3ncc(c3n2)-c2cc(F)cc(c2)OCC1 .
Outgoing: < 0.1 µM

====

Target: RIP2 recombinant protein (Homo sapiens, UniProt O43353)
Test: radiometric protein kinase assay (33PanQinase Activity Assay), in vitro peptide-based kinase assay
Type: biochemical
Conditions: 1 h; compound at 0.1 μM
Experimental: The inhibition of RIP2 kinase was assessed using RIP2 recombinant protein in an in vitro peptide-based kinase assay. […] The assay for RIP2 contains 70 mM HEPES-NaOH pH 7.5, 3 mM MgCl2, 3 mM MnCl2, 3 μM Na-orthovanadate, 1.2 mM DTT, 50 μg/ml PEG20000, ATP (3.0 μM), [γ-^33P]-ATP (approx. 5×10^05 cpm per well), protein kinase RIP2 (15.7 nM) and substrate (RBER-Chktide), 2.0 μg/50 μl). […] Incorporation of ^33Pi (counting of “cpm”) was determined with a microplate scintillation counter. […]
Give remaining activity at 0.1 µM for every item shown.

Incoming: Which value of remaining activity at 0.1 µM has been reported for CC1CNc2ccn3ncc(c3n2)-c2cccc(c2)OCC(=O)N1 (centres unmarked) in the records?
Outgoing: > 50%

Incoming: Now this one: NC(=O)c1ccc2cc1OCC(=O)NCCCNc1ccn3ncc-2c3n1
Outgoing: < 50%

Incoming: Would you mind doing COCCN1CCCNc2ccn3ncc(c3n2)-c2cc(F)cc(c2)OCC1 as well?
Outgoing: < 50%

Incoming: Then this compound: CCCCN1CCNc2ccn3ncc(c3n2)-c2cc(cc(C(N)=O)c2)OCC1
Outgoing: < 50%

Incoming: One more compound: COCCC(=O)N1CCCN(C)c2cccc(c2)-c2cnn3ccc(nc23)NCC1
Outgoing: < 50%
